Listing of recorded normalized growth by entry.
# protocol_text: chemical genetic growth profiling, strain panel (AID 1159580);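 also: tested at 20 µM; growth read once vehicle control cultures reached saturation at 30 °C; 1 = growth at the plate median or of vehicle wells; lower values mean less growth of the strain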
# stated_conditions: S. cerevisiae deletion strains, growth OD, locus YLR258W, strain gsy2, hits give low values
About 2,000 (36%) of roughly 5,500 compounds were called active. Roughly 18% stayed inconclusive and do not appear here. The list shows a part of the results.
I only need the number, thanks.

CN=C(NC#N)NCCSCc1nc(N=C(N)N)cs1 ... 0.996

Looking for the measured normalized growth of CC(=O)CC(=O)CCC(=O)O , can you help? 1.04

---

# protocol_text: chemical genetic growth profiling, strain panel (AID 1159580)
# stated_conditions: S. cerevisiae deletion strains, growth OD, locus YOR184W, strain ser1, hits give low values
The campaign covered roughly 5,500 compounds. About 2,000 (36%) were called active. Another 18% or so got no clear call; they are omitted. Some of the results follow.
result_type: normalized growth
I only need the number, thanks.

COC(=O)COc1cc(Cl)c(Cl)cc1Cl ... 0.904

Looking for the measured normalized growth of COc1ccc2c(c1)OC[C@@H](Cc1ccc(OC)c(OC)c1)[C@@H]2O , can you help? 0.952

Looking for the measured normalized growth of COc1cc(OC)c2c(c1)OC(c1ccc(OC)c(OC)c1)C(O)C2 (centres undefined) , can you help? 1.02

Looking for the measured normalized growth of C[N+](C)(C)CCOP(=O)([O-])OP(=O)(O)OC[C@H]1OC(n2ccc(N)nc2=O)[C@H](O)[C@@H]1O (some centres undefined) , can you help? 1.03

Looking for the measured normalized growth of CCc1nc(N)nc(N)c1-c1ccc(Cl)cc1 , can you help? 0.979

Looking for the measured normalized growth of CCOC(=O)/C=C(\C)OP(=O)(OC)OC , can you help? 1.01

Looking for the measured normalized growth of COc1cc(OC)c2c(c1)O[C@H](c1ccc(OC)c(OC)c1)[C@@H](O)C2 , can you help? 1

Looking for the measured normalized growth of CC1(C)C2CC[C@]3(C)C(C(=O)C=C4[C@H]5C[C@@](C)(C(=O)O)CC[C@]5(C)CC[C@]43C)[C@@]2(C)CC[C@@H]1O (some centres undefined) , can you help? 0.898

Looking for the measured normalized growth of CC1(C)C2CC[C@]3(C)C(C(=O)C=C4[C@@H]5C[C@@](C)(C(=O)O)CC[C@]5(C)CC[C@]43C)[C@@]2(C)CC[C@@H]1O (some centres undefined) , can you help? 0.857

---

# protocol_text: chemical genetic growth profiling, strain panel (AID 1159580)
# stated_conditions: S. cerevisiae deletion strains, growth OD, locus YKL009W, strain mrt4, hits give low values
About 2,000 (36%) of roughly 5,500 compounds were called active. Roughly 18% stayed inconclusive and do not appear here. The list shows a part of the results.
result_type: normalized growth
I only need the number, thanks.

COC(=O)[C@H]1[C@H]2C[C@H]3c4[nH]c5ccccc5c4CCN3C[C@H]2CC[C@@H]1O ... 1

Looking for the measured normalized growth of CO[C@H]1C[C@H](O[C@H]2[C@H](C)[C@@H](OC3O[C@H](C)C[C@H](N(C)C)[C@H]3O)[C@@H](C)C[C@]3(CO3)C(=O)[C@H](C)[C@@H](O)[C@@H](C)[C@@H](C)OC(=O)[C@@H]2C)O[C@@H](C)[C@@H]1O (some centres not stated) , can you help? 1

---

# protocol_text: chemical genetic growth profiling, strain panel (AID 1159580)
# stated_conditions: S. cerevisiae deletion strains, growth OD, locus YIL073C, strain SPO22
The campaign covered roughly 5,500 compounds. About 2,000 (36%) were called active. Another 18% or so got no clear call; they are omitted. Cut-off read from the data, not from the text of the source: active = normalized growth mostly below about 0.91 (no sharp cut-off); inconclusive = no clear call, values can overlap the other calls; inactive = mostly above about 0.92. This is one part of the list.
// allowed return values: true = active, false = inactive

OCCN(CCO)c1nc(N2CCCCC2)c2nc(N(CCO)CCO)nc(N3CCCCC3)c2n1 ... false
CCC(C(N)=O)c1ccccc1 (stereo unspecified) ... false
CC(=O)[C@H]1CCC2C3C[C@H](C)C4=CC(=O)CC[C@]4(C)C3[C@@H](O)C[C@@]21C (stereo partly specified) ... false

# outcome recorded in this test, key = CC(C)N(C(=O)CCl)c1ccccc1 false

# outcome recorded in this test, key = CCc1cccc(C)c1N(C(=O)CCl)C(C)COC (stereo unspecified) false

# outcome recorded in this test, key = CCCCCCCCCCCCC[N+](C)(C)Cc1ccccc1 true

# outcome recorded in this test, key = C=C(C)/C=C1/C=CC(=O)C(C)=C1 true

# outcome recorded in this test, key = CC(=O)O[C@]1(C(C)=O)CCC2C3C[C@H](C)C4=CC(=O)CC[C@]4(C)C3CC[C@@]21C (stereo partly specified) false

# outcome recorded in this test, key = Cc1cc(C(C)(C)CC(C)(C)C)ccc1OCCOCC[N+](C)(C)Cc1ccccc1 true

# outcome recorded in this test, key = CC(C)(C)CC(C)(C)c1ccc(OCCOCC[N+](C)(C)Cc2ccccc2)cc1 false

# outcome recorded in this test, key = C[CH2][Hg][S]c1ccccc1C(=O)O true

---

# protocol_text: chemical genetic growth profiling, strain panel (AID 1159580);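 also: tested at 20 µM; growth read once vehicle control cultures reached saturation at 30 °C; 1 = growth at the plate median or of vehicle wells; lower values mean less growth of the strain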
# stated_conditions: S. cerevisiae deletion strains, growth OD, locus YOL147C, strain pex11, hits give low values
In all, about 5,500 compounds went through this assay and about 2,000 (36%) were called active. About 18% were inconclusive and are not listed. Some of the results follow.
result_type: normalized growth
I only need the number, thanks.

CC(=O)O[C@H]1C(=O)[C@@]2(C)C([C@H](OC(=O)c3ccccc3)[C@]3(O)C[C@H](OC(=O)[C@H](O)[C@@H](NC(=O)c4ccccc4)c4ccccc4)C(C)=C1C3(C)C)[C@]1(OC(C)=O)CO[C@@H]1C[C@@H]2O (some centres not stated) ... 1.05
CO[C@H]1C[C@H](O[C@H]2[C@H](C)[C@@H](OC3O[C@H](C)C[C@H](N(C)C)[C@H]3O)[C@@H](C)C[C@]3(CO3)C(=O)[C@H](C)[C@@H](O)[C@@H](C)[C@@H](C)OC(=O)[C@@H]2C)O[C@@H](C)[C@@H]1O (some centres not stated) ... 0.996
COc1cccc2c1CCC1CC(=O)CCC21C (configuration not stated) ... 0.949
O=C(O)c1ccccc1OP(=O)(O)O ... 1
Cc1cc(=O)c2c(O)cc(O)c(C)c2o1 ... 0.99

Looking for the measured normalized growth of O=C(O)c1cc(=O)c2ccc(Cl)cc2[nH]1 , can you help? 0.994

Looking for the measured normalized growth of CCC(C(N)=O)c1ccccc1 (configuration not stated) , can you help? 0.988

---

# protocol_text: chemical genetic growth profiling, strain panel (AID 1159580);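 also: tested at 20 µM; growth read once vehicle control cultures reached saturation at 30 °C; 1 = growth at the plate median or of vehicle wells; lower values mean less growth of the strain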
# stated_conditions: S. cerevisiae deletion strains, growth OD, locus YNL248C, strain rpa49, hits give low values
About 2,000 (36%) of roughly 5,500 compounds were called active. Another 18% or so got no clear call; they are omitted. This is one part of the list.
Listing of recorded normalized growth by entry.
I only need the number, thanks.

Take a look at these entries with their results.
CCc1ccc(CCOc2ccc(CC3SC(=O)NC3=O)cc2)nc1 (stereo unspecified) ... 1.02
OCCN(CCO)c1nc(N2CCCCC2)c2nc(N(CCO)CCO)nc(N3CCCCC3)c2n1 ... 0.973

Looking for the measured normalized growth of Cc1cc(OC(=O)N2CCCCC2)c(C(C)C)cc1[N+](C)(C)C , can you help? 1.02

Looking for the measured normalized growth of CCN(CC)C(=S)SSC(=S)N(CC)CC , can you help? 0.0771

Looking for the measured normalized growth of CC(C)=CCc1c(O)cc2oc(C)cc(=O)c2c1O , can you help? 0.968

Looking for the measured normalized growth of COc1ccc(-c2coc3c(O)c(OC)ccc3c2=O)cc1 , can you help? 0.965

Looking for the measured normalized growth of N=c1nc(N2CCCCC2)cc(N)n1O , can you help? 1

---

Listing of recorded normalized growth by entry.
# protocol_text: chemical genetic growth profiling, strain panel (AID 1159580);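 also: tested at 20 µM; growth read once vehicle control cultures reached saturation at 30 °C; 1 = growth at the plate median or of vehicle wells; lower values mean less growth of the strain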
# stated_conditions: S. cerevisiae deletion strains, growth OD, locus YNR030W, strain Alg12, hits give low values
Out of some 5,500 compounds screened, about 2,000 (36%) were called active. Roughly 18% stayed inconclusive and do not appear here. Some of the results follow.
I only need the number, thanks.

Take a look at these entries with their results.
Cc1c(C(=O)O)cc(-c2ccccc2)n1-c1ccccc1 ... 0.923
Cc1nn(-c2ccccc2)nc1C(=O)NC(=O)N1CCCC1 ... 1
CCOC(=O)COc1ccc2c(c1)OC(C)(C)CC2=O ... 1
CCCCCCCc1c(O)c2ccccc2[nH]c1=O ... 1.02
O=c1[nH]c2cccnc2[nH]c1=O ... 1.01

Looking for the measured normalized growth of Cc1cc(C)c2c(-n3cccc3)c(C(=O)c3ccc(Cl)cc3)sc2n1 , can you help? 0.95

Looking for the measured normalized growth of COc1ccc(OC)c(C(=O)c2cc(OC)c(OC)c(OC)c2)c1 , can you help? 1.01

Looking for the measured normalized growth of Cc1cc(=O)n2c(-c3ccc(Cl)cc3)csc2n1 , can you help? 0.943

Looking for the measured normalized growth of CC(C)(C)OC(=O)N1CCC(C(N)=O)CC1 , can you help? 1.03

Looking for the measured normalized growth of CC(=O)OCc1ccc(/C=C(\C#N)S(=O)(=O)c2ccc(Cl)cc2)o1 , can you help? 0.985

Looking for the measured normalized growth of Cc1c(Cl)cccc1SCC(=O)O , can you help? 1

Looking for the measured normalized growth of COC(=O)c1cc(OC)c(OC)c(OC)c1NS(=O)(=O)c1cc(OC)ccc1OC , can you help? 1.01
